Source listed as ChEMBL document CHEMBL4196118.

- target.of.assay: Prostaglandin D2 receptor 2 (Homo sapiens, UniProt Q9Y5Y4)
- test.name: biochemical
- Description: Displacement of [3H]PGD2 from human CRTh2 expressed in HEK cell membranes after 60 mins by scintillation counting method
Parameter Ki: see the listing below.
State the answer as a number, implicitly in nM.

// known answers, use as guide
compound: O=C(O)CCC(=O)N(C1CCC1)[C@H]1c2ccccc2N(C(=O)c2ccc(OC(F)(F)F)cc2)[C@H]2CCCC21 (single isomer, unassigned)
target.of.assay: Prostaglandin D2 receptor 2 (Homo sapiens, UniProt Q9Y5Y4)
measured.metric: Ki
test.result: 8.6

compound: O=C(O)CCC(=O)N(C1CC1)C1c2ccccc2N(C(=O)OCc2ccccc2)C2CCCCC21 (racemic)
target.of.assay: Prostaglandin D2 receptor 2 (Homo sapiens, UniProt Q9Y5Y4)
measured.metric: Ki
test.result: 32

compound: O=C(O)CCC(=O)N(C1CC1)[C@H]1c2cc(F)c(Cl)cc2N(C(=O)c2ccc(OC(F)(F)F)cc2)[C@H]2CCC[C@H]21
target.of.assay: Prostaglandin D2 receptor 2 (Homo sapiens, UniProt Q9Y5Y4)
measured.metric: Ki
test.result: 3.4

compound: CN(C(=O)CCC(=O)O)[C@H]1c2ccccc2N(C(=O)c2ccc(OC(F)(F)F)cc2)[C@H]2CCCC12 (single isomer, unassigned)
target.of.assay: Prostaglandin D2 receptor 2 (Homo sapiens, UniProt Q9Y5Y4)
measured.metric: Ki
test.result: 16

compound: O=C(O)CCC(=O)N(C1CC1)[C@H]1c2cc(-c3cncnc3)ccc2N(C(=O)c2ccc(OC(F)(F)F)cc2)[C@H]2CCC[C@H]21
target.of.assay: Prostaglandin D2 receptor 2 (Homo sapiens, UniProt Q9Y5Y4)
measured.metric: Ki
test.result: 300

compound: O=C(O)CCC(=O)N(C1CC1)[C@H]1c2ccccc2N(C(=O)OCc2ccc(F)cc2)[C@H]2CCC[C@H]21
target.of.assay: Prostaglandin D2 receptor 2 (Homo sapiens, UniProt Q9Y5Y4)
measured.metric: Ki
test.result: 12

compound: O=C(O)CCC(=O)N(C1CC1)[C@H]1c2ccccc2N(c2nnc(-c3ccccc3)o2)[C@H]2CCC[C@H]21
target.of.assay: Prostaglandin D2 receptor 2 (Homo sapiens, UniProt Q9Y5Y4)
measured.metric: Ki
test.result: 28

compound: O=C(O)CCC(=O)N(C1CC1)[C@H]1c2cc(-c3ccc(F)cc3)ccc2N(C(=O)c2ccc(OC(F)(F)F)cc2)[C@H]2CCC[C@H]21
target.of.assay: Prostaglandin D2 receptor 2 (Homo sapiens, UniProt Q9Y5Y4)
measured.metric: Ki
test.result: 110

compound: O=C(O)CCCC(=O)N(C1CC1)C1c2ccccc2N(C(=O)OCc2ccccc2)C2CCCC21 (racemic)
target.of.assay: Prostaglandin D2 receptor 2 (Homo sapiens, UniProt Q9Y5Y4)
measured.metric: Ki
test.result: 1490

compound: O=C(c1ccc(OC(F)(F)F)cc1)N1c2ccccc2[C@H](N(C(=O)CCc2nn[nH]n2)C2CC2)[C@@H]2CCC[C@@H]21
target.of.assay: Prostaglandin D2 receptor 2 (Homo sapiens, UniProt Q9Y5Y4)
measured.metric: Ki
test.result: 98

Notebook: `O=C(O)c1ccccc1C(=O)N(C1CC1)[C@H]1c2ccccc2N(C(=O)c2ccc(OC(F)(F)F)cc2)[C@H]2CCC[C@H]21` , Ki read as 840

Notebook: `C[C@H](CC(=O)N(C1CC1)[C@H]1c2ccccc2N(C(=O)OCc2ccccc2)[C@H]2CCC[C@H]21)C(=O)O` , Ki read as 82

Notebook: `CCN(c1nc(C(=O)O)cs1)[C@H]1c2ccccc2N(C(=O)OCc2ccccc2)[C@H]2CCC[C@@H]12` , Ki read as 51

Notebook: `O=C(O)COC(=O)N(C1CC1)[C@H]1c2ccccc2N(C(=O)c2ccc(OC(F)(F)F)cc2)[C@H]2CC[C@H]21` , Ki read as 2.5

###

- test.name: Tmax in dog at 2 mg/kg, po
- Format: ADME, organism-based, Canis lupus familiaris
- details: in vivo
measured.metric: Tmax
Could you kindly put the unit after your number?

Notebook: `O=C(O)CCC(=O)N(C1CC1)[C@H]1c2cc(F)ccc2N(C(=O)c2ccc(OC(F)(F)F)cc2)[C@H]2CCC[C@H]21` , Tmax read as 25.2 min

###

- target.of.assay: Prostaglandin D2 receptor 2 (Homo sapiens)
- Sequence (Q9Y5Y4 whole entry): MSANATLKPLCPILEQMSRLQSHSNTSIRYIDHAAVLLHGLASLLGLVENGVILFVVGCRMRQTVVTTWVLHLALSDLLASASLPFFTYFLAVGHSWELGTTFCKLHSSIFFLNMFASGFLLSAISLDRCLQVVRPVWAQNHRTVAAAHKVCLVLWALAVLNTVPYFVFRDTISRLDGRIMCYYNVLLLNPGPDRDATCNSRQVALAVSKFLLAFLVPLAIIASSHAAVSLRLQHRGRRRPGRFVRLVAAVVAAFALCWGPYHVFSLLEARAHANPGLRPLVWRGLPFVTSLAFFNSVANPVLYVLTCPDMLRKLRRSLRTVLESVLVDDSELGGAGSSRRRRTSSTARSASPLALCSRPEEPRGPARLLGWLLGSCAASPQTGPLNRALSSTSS
Mark condition met only when IC50 stays strictly below 20 nM. Values equal to the cut-off are condition not met.

Recorded results for 3 compounds are shown here.
chemical.smiles: O=C(O)COC(=O)N(C1CC1)[C@H]1c2ccccc2N(C(=O)c2ccc(F)cc2)[C@H]2CC[C@H]21
assigned.category: condition met
//
chemical.smiles: O=C(O)COC(=O)N(C1CC1)[C@H]1c2ccccc2N(C(=O)c2cccc(F)c2)[C@H]2CC[C@H]21
assigned.category: condition met
//
chemical.smiles: CCN(c1nc(C(=O)O)cs1)[C@H]1c2ccccc2N(C(=O)OCc2ccccc2)[C@H]2CCC[C@@H]12
assigned.category: condition not met

Does this compound meet the criterion IC50 < 20 nM? `O=C(O)CCC(=O)N(C1CC1)[C@H]1c2cc(F)c(Cl)cc2N(C(=O)c2ccc(OC(F)(F)F)cc2)[C@H]2CCC[C@H]21`
condition met

Does this compound meet the criterion IC50 < 20 nM? `O=C(O)CCC(=O)N(C1CC1)[C@H]1c2ccc(Cl)cc2N(C(=O)c2ccc(OC(F)(F)F)cc2)[C@H]2CCC[C@H]21`
condition not met

###

- test.name: Intrinsic clearance in rat hepatocytes assessed per million cells
- Format: ADME, cell-based, Hepatocyte
- details: read-out: CLH
measured.metric: hepatocyte CLint (µL/min/1e6 cells)
State the answer as a number, implicitly in µL/min/1e6 cells.

// known answers, use as guide
chemical.smiles: O=C(O)COC(=O)N(C1CC1)[C@H]1c2ccccc2N(C(=O)c2cccc(F)c2)[C@H]2CC[C@H]21
hepatocyte CLint, µL/min/1e6 cells: 20
//
chemical.smiles: O=C(O)CCC(=O)N(C1CC1)[C@H]1c2ccccc2N(C(=O)c2cccc(F)c2)[C@H]2CC[C@H]21
hepatocyte CLint, µL/min/1e6 cells: 16
//
chemical.smiles: O=C(O)COC(=O)N(C1CC1)[C@H]1c2ccccc2N(C(=O)c2ccc(OC(F)(F)F)cc2)[C@H]2CC[C@H]21
hepatocyte CLint, µL/min/1e6 cells: 18
//
chemical.smiles: O=C(O)CCC(=O)N(C1CC1)[C@H]1c2ccccc2N(C(=O)c2cccc(OC(F)(F)F)c2)[C@H]2CC[C@H]21
hepatocyte CLint, µL/min/1e6 cells: 15
//
chemical.smiles: O=C(O)CCC(=O)N(C1CC1)[C@H]1c2ccccc2N(C(=O)c2ccc(OC(F)(F)F)cc2)[C@H]2CC[C@H]21
hepatocyte CLint, µL/min/1e6 cells: 13

Notebook: `O=C(O)COC(=O)N(C1CC1)[C@H]1c2ccccc2N(C(=O)c2ccc(F)cc2)[C@H]2CC[C@H]21` , hepatocyte CLint read as 13

Notebook: `O=C(O)CCC(=O)N(C1CC1)[C@H]1c2ccccc2N(C(=O)c2ccc(F)cc2)[C@H]2CC[C@H]21` , hepatocyte CLint read as 14

###

- test.name: Clearance in dog plasma at 1 mg/kg, iv
- Type: ADME, organism-based, Canis lupus familiaris
measured.metric: clearance (mL/min/kg)
State the answer as a number, implicitly in mL/min/kg.

Notebook: `O=C(O)CCC(=O)N(C1CC1)[C@H]1c2cc(F)ccc2N(C(=O)c2ccc(OC(F)(F)F)cc2)[C@H]2CCC[C@H]21` , clearance read as 9.4

###

- test.name: Clearance in monkey plasma at 1 mg/kg, iv
- Assay type: ADME, organism-based, Macaca mulatta
- details: rhesus monkey
measured.metric: clearance
Could you kindly put the unit after your number?

Notebook: `O=C(O)CCC(=O)N(C1CC1)[C@H]1c2cc(F)ccc2N(C(=O)c2ccc(OC(F)(F)F)cc2)[C@H]2CCC[C@H]21` , clearance read as 16.4 mL/min/kg

###

- test.name: Cmax in rat at 10 mg/kg, po
- Assay type: ADME, organism-based
- Parameters: dose 10 mg/kg, route oral
- details: in vivo
measured.metric: Cmax (nM)
State the answer as a number, implicitly in nM.

Notebook: `O=C(O)CCC(=O)N(C1CC1)[C@H]1c2cc(F)ccc2N(C(=O)c2ccc(OC(F)(F)F)cc2)[C@H]2CCC[C@H]21` , Cmax read as 2070
